All figures here come from ChEMBL document CHEMBL1139922.

# target system: Oxysterols receptor LXR-alpha (Homo sapiens)
# Sequence (Q13133 whole entry, the tested form may be a part): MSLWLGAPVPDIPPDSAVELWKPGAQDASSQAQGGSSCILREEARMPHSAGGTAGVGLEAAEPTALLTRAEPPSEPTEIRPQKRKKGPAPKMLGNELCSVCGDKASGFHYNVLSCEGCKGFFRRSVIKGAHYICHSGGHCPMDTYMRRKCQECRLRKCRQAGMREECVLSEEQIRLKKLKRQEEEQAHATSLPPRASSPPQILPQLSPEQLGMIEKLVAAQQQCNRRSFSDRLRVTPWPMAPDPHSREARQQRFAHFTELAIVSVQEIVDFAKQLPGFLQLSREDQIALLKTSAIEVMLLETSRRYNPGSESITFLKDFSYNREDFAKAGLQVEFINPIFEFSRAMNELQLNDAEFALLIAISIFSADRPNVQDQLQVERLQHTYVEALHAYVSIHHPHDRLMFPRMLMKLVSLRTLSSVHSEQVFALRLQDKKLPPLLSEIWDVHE
# test name: Agonist activity at LXRalpha LBD by HTRF cofactor peptide recruitment assay
pEC50: −log10 of the molar value.
# pEC50 >= 6 gives 1.0, anything below gives 0.0

CC(C)(C)OC(=O)n1c(-c2ccc3c(c2)CC(NS(=O)(=O)c2ccc(-c4ccon4)s2)C3)cc2ccccc21 (stereo unspecified) : 0.0

Entry CC(C)(C)OC(=O)n1c(-c2ccc3c(c2)CC(NS(=O)(=O)c2cccs2)C3)cc2ccccc21 (stereo unspecified) : is its pEC50 no less than 6?
1.0

Determine whether this molecule has pEC50 no lower than 6: O=C(O)Cc1cccc(OCCCN(Cc2cccc(C(F)(F)F)c2Cl)CC(c2ccccc2)c2ccccc2)c1
1.0

Can CC(C)(C)OC(=O)n1c(-c2ccc3c(c2)CC(NS(=O)(=O)c2c(F)cccc2F)C3)cc2ccccc21 (stereo unspecified) be said to have pEC50 at or above 6?
1.0

Hi, just wondering whether CC(C)(C)OC(=O)n1c(-c2ccc3c(c2)CC(NS(=O)(=O)c2ccc(F)cc2)C3)cc2ccccc21 (stereo unspecified) shows pEC50 of 6 or higher.
0.0

---

# target system: Oxysterols receptor LXR-beta (Homo sapiens)
# test name: Agonist activity at LXRbeta LBD by HTRF cofactor peptide recruitment assay
# Type: functional
# Lookup of reported EC50 keyed by entry
Express your answer in nM, writing the number without its unit.

O=C(O)Cc1cccc(OCCCN(Cc2cccc(C(F)(F)F)c2Cl)CC(c2ccccc2)c2ccccc2)c1 : 35
O=C(CC1CC1)n1c(-c2ccc3c(c2)CC(NS(=O)(=O)c2ccccc2)C3)cc2ccccc21 (centres undefined) : 1160
CC(C)(C)OC(=O)n1c(-c2ccc3c(c2)CC(NS(=O)(=O)c2cccc(C#N)c2)C3)cc2ccccc21 (centres undefined) : 460

Need EC50, item CC(C)(C)OC(=O)n1c(-c2ccc3c(c2)CC(NS(=O)(=O)c2ccccc2Cl)C3)cc2ccccc21 (centres undefined)
760

---

Listed here: items and their measured pEC50.
# target system: Oxysterols receptor LXR-beta (Homo sapiens, UniProt P55055)
# Sequence (P55055 whole entry): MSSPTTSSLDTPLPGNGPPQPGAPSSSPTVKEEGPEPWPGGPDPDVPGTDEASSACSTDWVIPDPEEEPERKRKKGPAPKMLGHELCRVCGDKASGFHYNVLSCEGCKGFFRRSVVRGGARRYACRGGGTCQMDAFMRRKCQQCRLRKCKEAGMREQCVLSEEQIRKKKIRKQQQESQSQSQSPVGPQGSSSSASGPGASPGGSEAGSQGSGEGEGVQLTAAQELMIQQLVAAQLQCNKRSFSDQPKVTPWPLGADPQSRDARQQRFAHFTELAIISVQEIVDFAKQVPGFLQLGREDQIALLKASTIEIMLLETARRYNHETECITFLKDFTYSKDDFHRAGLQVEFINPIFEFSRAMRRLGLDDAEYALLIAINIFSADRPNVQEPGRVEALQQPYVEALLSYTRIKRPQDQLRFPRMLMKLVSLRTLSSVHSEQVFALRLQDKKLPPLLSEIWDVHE
# test name: Agonist activity at LXRbeta LBD by HTRF cofactor peptide recruitment assay
# Format: functional
# reply with the number alone; pEC50 is -log10 of concentration in mol/L

Below, 5 compounds whose answers are already recorded.
COc1ccccc1C(=O)NC1Cc2ccc(-c3cc4ccccc4n3C(=O)OC(C)(C)C)cc2C1 (stereo not drawn) : 6.33
CC(C)(C)OC(=O)n1c(-c2ccc3c(c2)CC(NS(=O)(=O)c2cccc(Cl)c2)C3)cc2ccccc21 (stereo not drawn) : 5.74
CC(C)(C)OC(=O)n1c(-c2ccc3c(c2)CC(NC(=O)c2ccccc2F)C3)cc2ccccc21 (stereo not drawn) : 6.77
CC(C)(C)OC(=O)n1c(-c2ccc3c(c2)CC(NS(=O)(=O)c2cccs2)C3)cc2ccccc21 (stereo not drawn) : 6.96
COc1cccc(S(=O)(=O)NC2Cc3ccc(-c4cc5ccccc5n4C(=O)OC(C)(C)C)cc3C2)c1 (stereo not drawn) : 6.02

The record that follows has no pEC50 shown yet.
For the compound shown here, CC(C)(C)OC(=O)n1c(-c2ccc3c(c2)CC(NS(C)(=O)=O)C3)cc2ccccc21 (stereo not drawn) , give the reported pEC50.
6.68
